method: Plasma and total brain concentrations at 1 h post single oral administration to male Wistar Han rats
Type: in vivo
condition parameters: rat, plasma, 10 mg/kg oral gavage, read-out: Mean [plasma]
The reader will find reported concentration at 1 h values listed item by item below.
Numbers only here, please. The scale is ng/mL.

compound	concentration at 1 h / ng/mL
C=CC(=O)N1CCC[C@@H](c2c(F)cc(C(N)=O)c3[nH]c4c(c23)CCC4)C1	421

concentration at 1 h for C=CC(=O)N1CCC[C@@H](c2c(F)cc(C(N)=O)c3[nH]c4c(c23)CC2(CC4)CC2)C1 ?
395

concentration at 1 h for C=CC(=O)N1CCCC(c2c(F)cc(C(N)=O)c3[nH]c4c(c23)CCCCC4)C1 (single isomer, unassigned) ?
196
